Parameter: Volatility (μg/l air). Scope: all listed entries.
# experiment summary: Volatility of perfuming compounds in air
# Type: physicochemical
# measurement context: Table 8, perfuming compounds having a sweet note
measured parameter: Volatility (μg/l air)

1. CCOc1cc(C=O)ccc1O [3-ethoxy-4-hydroxybenzaldehyde]; 0.11
2. Cc1occc(=O)c1O [3-HYDROXY-2-METHYL-4(4H)-PYRANONE]; 92.42
3. CC1=CC[C@H](C(C)CC2CCCC2=O)CC1 (stereo partly shown); 2.05
4. CCCCCC1CCCC(=O)O1 (racemic) [(+−)-6-pentyltetrahydro-2H-pyran-2-one]; 9.61
5. COc1cccc(OC)c1O; 19.23
6. CC(=O)c1ccccc1; 1728.98
7. CC/C=C\CC1=C(C)CCC1=O; 56.72
8. CCCCCCC1CCCC(=O)O1 (stereo not shown) [6-hexyltetrahydro-2H-pyran-2-one]; 4.64
9. CCCCCCCC1CCCC(=O)O1 (racemic) [(+−)-6-heptyltetrahydro-2H-pyran-2-one]; 0.90
10. CC1=C(O)C(=O)CC1 [2-HYDROXY-3-METHYL-2-CYCLOPENTEN-1-ONE]; 396.50

Reference source for all entries: patent US11427783B2
